Listed here: items and their measured pest or weed control at 20 ppm.
# Test system: Rhipicephalus sanguineus (Dog Tick)
# Assay comment: Activity in vitro against Rhipicephalus sanguineus (dog tick), Assay B, coated glass vials
# Measurement setup: Rhipicephalus sanguineus; at 20 ppm; contact with coated vials, assessment at 48 hours; read-out: efficacy (EC50)

C[C@H](NC(=O)c1cccc(C#N)c1)c1ncnn1-c1ncc(F)cn1    > 50%
CCN(C(=O)c1cc(C#N)cc(C(F)(F)F)c1)C(C)c1ncnn1-c1ncccn1 (centres unmarked)    > 50%
CCOC(OCC)c1nc(C(C)NC(=O)c2cc(C(F)(F)F)cc(C(F)(F)F)c2)n(-c2ncccn2)n1 (centres unmarked)    > 50%
C[C@@H](c1ncnn1-c1ncccn1)N(CC1CC1)C(=S)c1cc(C(F)(F)F)cc(C(F)(F)F)c1    > 50%
Cc1nc(C(C)N(CC2CC2)C(=O)c2cc(C(F)(F)F)cc(C(F)(F)F)c2)n(-c2ncccn2)n1 (centres unmarked)    > 50%

Lookup: Provide measured pest or weed control at 20 ppm value, entry: C#CCN(C(=O)c1cc(C#N)cc(C(F)(F)F)c1)C(C)c1ncnn1-c1ncccn1 (centres unmarked)
Found: > 50%

Lookup: Provide measured pest or weed control at 20 ppm value, entry: CC(c1ncnn1-c1ncccn1)N(C)C(=O)c1cccc(C#N)c1 (centres unmarked)
Found: > 50%

Lookup: Provide measured pest or weed control at 20 ppm value, entry: CC(c1ncnn1-c1ncccn1)N(CC1CC1)C(=O)c1cc(C#N)cc(C(F)(F)F)c1 (centres unmarked)
Found: > 50%

Lookup: Provide measured pest or weed control at 20 ppm value, entry: C[C@@H](c1ncnn1-c1ncccn1)N(C)C(=O)c1cc(C(F)(F)F)cc(C(F)(F)F)c1
Found: > 50%

Lookup: Provide measured pest or weed control at 20 ppm value, entry: C[C@H](NC(=O)c1cc(C(F)(F)F)cc(C(F)(F)F)c1)c1ncnn1-c1ncc(F)cn1
Found: > 50%

Lookup: Provide measured pest or weed control at 20 ppm value, entry: CC(c1ncnn1-c1ncccn1)N(CC1CC1)C(=O)c1cc(Br)cc(C(F)(F)F)c1 (centres unmarked)
Found: > 50%

Lookup: Provide measured pest or weed control at 20 ppm value, entry: CC(c1ncnn1-c1ncccn1)N(C)C(=O)c1cc(C#N)cc(C(F)(F)F)c1 (centres unmarked)
Found: > 50%
